- EXPERIMENTAL_TARGET: Mu-type opioid receptor (Homo sapiens)
- Sequence (P35372 whole entry): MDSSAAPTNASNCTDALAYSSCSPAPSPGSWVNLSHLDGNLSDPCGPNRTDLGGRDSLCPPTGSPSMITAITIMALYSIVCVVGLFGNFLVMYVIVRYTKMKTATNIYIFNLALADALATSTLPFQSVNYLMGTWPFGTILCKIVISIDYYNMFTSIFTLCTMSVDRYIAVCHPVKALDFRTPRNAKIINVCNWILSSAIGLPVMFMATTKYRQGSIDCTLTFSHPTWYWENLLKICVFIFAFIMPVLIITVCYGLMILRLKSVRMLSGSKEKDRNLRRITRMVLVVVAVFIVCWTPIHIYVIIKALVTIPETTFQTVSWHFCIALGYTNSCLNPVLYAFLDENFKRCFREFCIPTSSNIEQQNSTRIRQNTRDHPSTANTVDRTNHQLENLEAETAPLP
- CONDITION: CHO
- Description: Ability to displace DAMGO from human recombinant Opioid receptor mu 1 in CHO cells using [35S]- GTP-gamma S Assay
What Ke was measured for each of the following?
Answers are plain numbers, in nM.

Worked examples, 5 compounds total:
| MOL | Ke [nM] |
| --- | --- |
| CCC/N=C(\N)Cc1ccc2[nH]c3c(c2c1)C[C@@]1(O)C2Cc4ccc(O)c5c4[C@@]1(CCN2CC1CC1)[C@H]3O5 | 3.19 |
| CCCCCCC/N=C(\N)Cc1ccc2[nH]c3c(c2c1)C[C@@]1(O)C2Cc4ccc(O)c5c4[C@@]1(CCN2CC1CC1)[C@H]3O5 | 2.04 |
| CCCCC(=N)NCCc1ccc2[nH]c3c(c2c1)C[C@@]1(O)C2Cc4ccc(O)c5c4[C@@]1(CCN2CC1CC1)[C@H]3O5 | 5.33 |
| CCCC(=N)NCCc1ccc2[nH]c3c(c2c1)C[C@@]1(O)C2Cc4ccc(O)c5c4[C@@]1(CCN2CC1CC1)[C@H]3O5 | 4.21 |
| COc1ccc(CNC(=O)c2ccc3[nH]c4c(c3c2)C[C@@]2(O)C3Cc5ccc(O)c6c5[C@@]2(CCN3CC2CC2)[C@H]4O6)cc1 | 0.94 |

Below are 2 compounds. Give each one its Ke.
1. CCC(=N)NCCc1ccc2[nH]c3c(c2c1)C[C@@]1(O)C2Cc4ccc(O)c5c4[C@@]1(CCN2CC1CC1)[C@H]3O5
2. CCCCNC(=O)NCCc1ccc2[nH]c3c(c2c1)C[C@@]1(O)C2Cc4ccc(O)c5c4[C@@]1(CCN2CC1CC1)[C@H]3O5

# output
4.7
1.63
